- assay_system: Orf1 (Streptomyces luteocolor)
- Construct: full length, 491 residues; pET28a, His-tagged (Ni-NTA), E. coli BL21(DE3); tetramer with FAD in each chain; peptide AFAC281GLHLVPR
- experiment_summary: isothermal titration calorimetry
- Type: binding
metric: Kd (µM)
I only need the number, in µM, no unit after it.

Exercise: Please report the recorded Kd for NCCCC(N)CC(=O)NC1C(N=C2NC3C(=O)NCC(O)C3N2)OC(CO)C(OC(N)=O)C1O (stereo not shown) [compound 7, ST-F] .
Solution: 11.3

---

- assay_system: Orf1 (Streptomyces luteocolor, UniProt A0A125SZC1, R342A)
- Construct: full length, 491 residues; pET28a, His-tagged (Ni-NTA), E. coli BL21(DE3); tetramer with FAD in each chain; peptide AFAC281GLHLVPR
- experiment_summary: isothermal titration calorimetry
- From the text: isothermal titration calorimetry on Orf1 | held the same ST-F binding affinity as the wild type
metric: Kd (µM)
Answer with a number only, understood to be in µM.

Exercise: Recorded Kd for NCCCC(N)CC(=O)NC1C(N=C2NC3C(=O)NCC(O)C3N2)OC(CO)C(OC(N)=O)C1O (stereo not shown) with Orf1 (Streptomyces luteocolor, UniProt A0A125SZC1, R342A), please?
Solution: 14.3
